The measurements presented in this section are drawn from patent US20090221530A1.

Molecular target: F plasmid TraI N300 (Escherichia coli)
Construct: An amino-terminal 300 residue F plasmid TraI construct; made in house; host or cells: E. coli BL21 (DE3)/pLysS or HMS174 (DE3)/pLysS, vector pTYB2
Assay: Fluorescence kinetic assay of oriT DNA cleavage and crossover by TraI N300
Format: biochemical, E. coli
Conditions: Crossover; C-B/E Direct linear Plot; read-out: Kiu
Measured parameter: pKi
Remember the convention: pKi equals -log10 of concentration in molar.

I have this compound here, O=P(O)(O)NP(=O)(O)O [pNp, imidodiphosphate] , and I need its recorded pKi.
8.49

----------
Target: F plasmid TraI N300 (Escherichia coli, UniProt P14565)
Construct: An amino-terminal 300 residue F plasmid TraI construct; made in house; host or cells: E. coli BL21 (DE3)/pLysS or HMS174 (DE3)/pLysS, vector pTYB2
Sequence (P14565 1-306): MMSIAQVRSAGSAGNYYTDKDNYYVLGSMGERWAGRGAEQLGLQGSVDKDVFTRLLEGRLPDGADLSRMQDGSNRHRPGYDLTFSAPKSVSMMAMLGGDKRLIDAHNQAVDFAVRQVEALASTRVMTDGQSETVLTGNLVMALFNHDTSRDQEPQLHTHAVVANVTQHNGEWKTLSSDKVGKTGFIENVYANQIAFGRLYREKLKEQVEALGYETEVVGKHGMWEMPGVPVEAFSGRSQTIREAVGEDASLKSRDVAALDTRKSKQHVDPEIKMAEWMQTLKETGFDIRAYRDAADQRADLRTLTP
Test: Fluorescence kinetic assay of oriT DNA cleavage and crossover by TraI N300
Assay type: biochemical, E. coli
Conditions: Crossover; C-B/E Direct linear Plot; read-out: Kic
Description: Reaction Buffer: 6.42 mM MgCl2, 20.5% glycerol, 153.9 mM NaCl, and 51.3 mM Tris-HCl pH 7.5. Streptavidin Wash Buffer (Tris buffered saline, TBS/Tween): and 150 mM NaCl, 25 mM Tris-HCl pH 7.5, and 0.05% Tween-20. Stopping Buffer: 1.2% sodium-dodecyl sulfate (SDS), and 300 mM EDTA pH 10. TE Buffer: 1 mM EDTA, and 10 mM Tris-HCl pH 7.4. Fluorescence Buffer: 80% glycerol, 200 mM Tris-HCl pH 8.0. […]
Measured parameter: pKi
Remember the convention: pKi equals -log10 of concentration in molar.

Kindly state the measured pKi obtained for O=P(O)(O)NP(=O)(O)O [pNp, imidodiphosphate] with F plasmid TraI N300 (Escherichia coli, UniProt P14565).
8.80
